For each entry below, report its EE (%) value.
# experiment.description: Encapsulation efficiency of RNA (QUANT-IT RIBOGREEN RNA assay)
# Type: physicochemical
# experimental.context: Table 1A
The response must be a number in % with no trailing unit.

Ask: What does the record list as EE (%) for `CCCCCCCCCOC(=O)CCCCCCCN(CCCO)CCCCCCCC(=O)OC(CCCCCCCC)CCCCCCCC` ?
Result: 97.21

Ask: What does the record list as EE (%) for `CCCCCCCCCOC(=O)CCCCCCCN(CCO)CCCCCCCC(=O)OC(COCCCCCC)COCCCCCC` ?
Result: 32.3

Ask: What does the record list as EE (%) for `CCCCCCCCCOC(=O)CCCCCCCN(CCO)CCCCCCCC(=O)OC1CCCCCCCCCCCCCC1` ?
Result: 95.4

Ask: What does the record list as EE (%) for `CCCCCCCC/C=C\CCCCCCCCN(CCO)CCCCCCCC(=O)OC(CCCCCCCC)CCCCCCCC` ?
Result: 95.11

Ask: What does the record list as EE (%) for `CCCCCCCCCOC(=O)CCCCCCCN(CCCCCCCC(=O)OC(CCCCCCCC)CCCCCCCC)CCOC(C)=O` ?
Result: 75.7

Ask: What does the record list as EE (%) for `CCCCCCCCCOC(=O)CCCCCCCN(CCCCCCCC(=O)OC(CCCCCCCC)CCCCCCCC)CCCC(F)(F)F` ?
Result: 0

Ask: What does the record list as EE (%) for `CCCCCCCCCOC(=O)CCCCCCCN(CCCCCCCC(=O)OC(CCCCCCCC)CCCCCCCC)CCCOC(=O)NC` ?
Result: 94.8

* * *

# experiment.description: Particle size and polydispersity index of nanoparticle compositions (Zetasizer Nano ZS)
# Type: physicochemical
# experimental.context: Table 1A; lipid:DSPC:cholesterol:PEG-DMG 50:10:38.5:1.5 mol %
endpoint: Size (nm)
The response must be a number in nm with no trailing unit.

Ask: What does the record list as Size (nm) for `CCCCCCCCCOC(=O)CCCCCCCN(CCO)CCCCCCCCCOP(=O)(OCCCCCCCCC)OCCCCCCCCC` ?
Result: 110.4

Ask: What does the record list as Size (nm) for `CCCCCCCCCCCCCCN(CCO)CCCCCCCC(=O)OC(CCCCCCCC)CCCCCCCC` ?
Result: 83.9

Ask: What does the record list as Size (nm) for CCCCCCCCC(CCCCCCCC)OC(=O)CCCCCCCN(CCO)CCCCCCCC(=O)OC1CCC(CCCCC)CC1 (stereo not drawn) ?
Result: 76.7

Ask: What does the record list as Size (nm) for `CCCCCCCCCOC(=O)CCCCCCCN(CCO)CCCCCCC/C=C\C(CCCCCCCC)CCCCCCCC` ?
Result: 62.6

Ask: What does the record list as Size (nm) for `CCCCCCCCCCCCCCCCCCN(CCO)CCCCCCCC(=O)OC(CCCCCCCC)CCCCCCCC` ?
Result: 72.7

Ask: What does the record list as Size (nm) for `CCCCCCCCC(CCCCCCCC)OC(=O)CCCCCCCN(C)CCCCCCCCCCCC(=O)OCCCCC` ?
Result: 63.1

Ask: What does the record list as Size (nm) for CCCCCCCCCOC(=O)CCCCCCCN(CCO)CCCCCCCC(=O)OC(CCC)CCCCCCCC (stereo not drawn) ?
Result: 133.8

Ask: What does the record list as Size (nm) for `CCCCCCCCCOC(=O)CCCCCCCN(CCCCCCCC(=O)OC(CCCCCCCC)CCCCCCCC)CCCn1cnc2c(N)ncnc21` ?
Result: 63.3

Ask: What does the record list as Size (nm) for `CCCCC/C=C\C/C=C\CCCCCCCCN(CCO)CCCCCCCC(=O)OC(CCCCCCCC)CCCCCCCC` ?
Result: 73.1

Ask: What does the record list as Size (nm) for `CCCCCCCCCOC(=O)CCCCCCCN(CCCCCCCC(=O)OC(CCCCCCCC)CCCCCCCC)CCCNC(=O)CO` ?
Result: 84.2

Ask: What does the record list as Size (nm) for CCCCCCCCC(CCCCCCCC)OC(=O)CCCCCCCN(CCO)CCCCCCCC(=O)OCC(C)CCCCCCC (stereo not drawn) ?
Result: 77.2

Ask: What does the record list as Size (nm) for CCCCCCCCCOC(=O)CCCCCCCN(CCO)CCCCCCCC(=O)OC1CCC(CCCCC)CC1 (stereo not drawn) ?
Result: 93.7

Ask: What does the record list as Size (nm) for `CCCCCCCCCOC(=O)CCCCCCCN(CCCCCCCC(=O)OC(CCCCCCCC)CCCCCCCC)CCCn1ccc(=O)[nH]c1=O` ?
Result: 65.1

Ask: What does the record list as Size (nm) for `CCCCCCCCCOC(=O)CCCCCCCN(CCCCCCCC(=O)OC(CCCCCCCC)CCCCCCCC)CCN(C)C` ?
Result: 130.1

Ask: What does the record list as Size (nm) for `CCCCCCCCCOC(=O)CCCCCCCN(CCCCCCCC(=O)OC(CCCCCCCC)CCCCCCCC)CCCn1ccc(N)nc1=O` ?
Result: 64.5

Ask: What does the record list as Size (nm) for CCCCCCCCCC(=O)OC(C)CCCCCCN(CCO)CCCCCCCOC(=O)C(CCCCCCCC)CCCCCCCC (stereo not drawn) ?
Result: 84.6

Ask: What does the record list as Size (nm) for CCCCCCCCC(CCCCCCCC)OC(=O)CCCCCCCN(CCO)CCCCCC(=O)OC(CCCCCCCC)C1CC1 (stereo not drawn) ?
Result: 104.1

Ask: What does the record list as Size (nm) for CCCCCCCCC(CCCCCCCC)OC(=O)CCCCCCCN(CCO)CCCCCCCC(=O)OCC(CCCCCCC)OC (stereo not drawn) ?
Result: 192.7

Ask: What does the record list as Size (nm) for `CCCCCCCCCOC(=O)CCCCCCCN(CCO)CCCCCCC(=O)OCC(CCCCCCCC)CCCCCCCC` ?
Result: 98.8

Ask: What does the record list as Size (nm) for CCCCCCCCCOC(=O)CCCCCCCN(CCO)CCCCCCCC(=O)OC1CCC(C2CCCCC2)CC1 (stereo not drawn) ?
Result: 118

Ask: What does the record list as Size (nm) for `CCCCCCCCCOC(=O)CCCCCCCN(CCCCCCCC(=O)OC(CCCCCCCC)CCCCCCCC)CCCOC(=O)NC` ?
Result: 65.7

Ask: What does the record list as Size (nm) for `CCCCCCCCC(CCCCCCCC)OC(=O)CCCCCCCN(CCO)CCCC(=O)OCCCCCCC` ?
Result: 112.9

Ask: What does the record list as Size (nm) for CCCCCCCCC(C)OC(=O)CCCCCN(CCO)CCCCCCCC(=O)OC(CCCCCCCC)CCCCCCCC (stereo not drawn) ?
Result: 69.3

Ask: What does the record list as Size (nm) for `CCCCCCCCCOC(=O)CCCCCCCN(CCO)CCCCCCCC(=O)OC1CCCCCCCCCCCCCC1` ?
Result: 99.2

Ask: What does the record list as Size (nm) for CCCCCCCCC(CCCCCCCC)OC(=O)CCCCCCCN(CCO)CCCCCCCCC1CC1CCCCCCCC (stereo not drawn) ?
Result: 80.6

Ask: What does the record list as Size (nm) for `CCCCCCCCCN(CCO)CCCCCCCC(=O)OC(CCCCCCCC)CCCCCCCC` ?
Result: 97.5

Ask: What does the record list as Size (nm) for `CCCCCCCCCOC(=O)CCCCCCCN(CCO)CCCCCCCC(=O)OC(CCCC)CCCC` ?
Result: 128.4

Ask: What does the record list as Size (nm) for `CCCC/C=C\CCC(CC/C=C\CCCC)OC(=O)CCCCCCCN(CCO)CCCCCC(=O)OCCCCCCCCCCC` ?
Result: 82.1

Ask: What does the record list as Size (nm) for CCCCCCCCC(CCCCCC)C(=O)OCCCCCCCCCN(CCO)CCCCCCCCCOC(=O)C(CCCCCC)CCCCCCCC (stereo not drawn) ?
Result: 66.0

Ask: What does the record list as Size (nm) for CCCCCCCCCOC(=O)CCCCCCCN(CCCCCCCC(=O)OC(CCCCCCCC)CCCCCCCC)C1CCCCC1O (stereo not drawn) ?
Result: 80.2

* * *

# experiment.description: ALT and AST after intravenous administration to rat (Table 19A)
# Assay type: in vivo
# experimental.context: 2 mpk
For each entry below, report its AST value.
The response must be a number in international units with no trailing unit.

Ask: What does the record list as AST for CCCCCCCCC(CC)OC(=O)CCCCCCCN(CCO)CCCCCCCC(=O)OC(CCCCCCCC)CCCCCCCC (stereo not shown) ?
Result: 132.4

Ask: What does the record list as AST for CCCCCCCCC(CCC)OC(=O)CCCCCCCN(CCO)CCCCCCCC(=O)OC(CCCCCCCC)CCCCCCCC (stereo not shown) ?
Result: 158.4

Ask: What does the record list as AST for CCCCCCCCC(C)OC(=O)CCCCCCCN(CCO)CCCCCCCC(=O)OC(CCCCCCCC)CCCCCCCC (stereo not shown) ?
Result: 131.2

Ask: What does the record list as AST for CCCCC/C=C\C/C=C\CCCCCCCCC(CCCCCCCC/C=C\C/C=C\CCCCC)OC(=O)CCCN(C)C [MC3, DLin-MC3-DMA, reference compound] ?
Result: 139.0
